Task for the reader: assign each of the following variants its reported self-cleavage kobs at 640 uM GlcN6P.
B1: glmS ribozyme (parent)
chain: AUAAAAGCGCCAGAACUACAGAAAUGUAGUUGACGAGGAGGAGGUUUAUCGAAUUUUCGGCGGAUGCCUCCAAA

Variants of: B1
test.name: self-cleavage kobs at 640 uM GlcN6P; higher = faster cleavage; RNA array
measurement.context: with glucosamine-6-phosphate
Fewer inactive variants are shown than the library holds.
Numbers only, in s⁻¹.

Endpoint output: self-cleavage kobs at 640 uM GlcN6P of A6U A15G G62U U69G . Value?
0.000197

I have this variant here, A39C C67G , and I need its recorded self-cleavage kobs at 640 uM GlcN6P.
8.41e-05

# query: self-cleavage kobs at 640 uM GlcN6P of entry C34U C61A C67G
0.000318

Quick request: self-cleavage kobs at 640 uM GlcN6P for each listed item, please.
1. A14U G21A U56G
2. U55A C67A C68U

1. 0.0043
2. 8.42e-05

Field: self-cleavage kobs at 640 uM GlcN6P. Fill in for each record below.
1. A48G U55G
2. A15C C70U
3. A52G C71A

1: 4.19e-05; 2: 0.000719; 3: 9.96e-05

Below is a list of variants. For each, state its recorded self-cleavage kobs at 640 uM GlcN6P.
1. A15U A36C U56G U69A
2. U46G C71G
3. C8U G37U C71G
4. G29C A39G U46A U65G
5. G32A A53C C71U

1. 7.26e-05
2. 0.000392
3. 0.000584
4. 0.000174
5. 7.17e-05
